test: Stability of cannabinoid entourage and Vitamin E components of the powder concentrate by LCMSMS; assay type: physicochemical; conditions: powder stored at 21-25° C.; 12 days
Hi! Just check whether Stability of Plant-Derived Cannabinoid Compounds in Powder Concentrate is below 0.5 mg/g powder. Below gives MET, equal or above gives NOT MET.

{"compound": "CCCc1cc(O)c2c(c1)OC(C)(C)[C@@H]1CCC(C)=C[C@@H]21 [THCV, delta-9-tetrahydrocannabivarin]", "classAssignment": "NOT MET"}
{"compound": "CCCCCc1cc(O)c2c(c1)OC1(C)CCC3C1C2C3(C)C (stereo not shown)", "classAssignment": "MET"}
{"compound": "CCCCCc1cc2c(c(O)c1C(=O)O)[C@@H]1C=C(C)CC[C@H]1C(C)(C)O2 [D9 THCA, delta-9-tetrahydrocannabinolic acid]", "classAssignment": "MET"}
{"compound": "C=C(C)[C@@H]1CCC(C)=C[C@H]1c1c(O)cc(CCC)cc1O", "classAssignment": "MET"}
{"compound": "C=C(C)[C@@H]1CCC(C)=C[C@H]1c1c(O)cc(CCCCC)c(C(=O)O)c1O", "classAssignment": "MET"}
{"compound": "CCCCCc1cc(O)c2c(c1)OC(C)(C)[C@@H]1CCC(C)=C[C@@H]21 [D9 THC, delta-9-tetrahydrocannabinol, reference compound]", "classAssignment": "NOT MET"}
{"compound": "C=C(C)[C@@H]1CCC(C)=C[C@H]1c1c(O)cc(CCCCC)cc1O [CBD, cannabidiol, reference compound]", "classAssignment": "NOT MET"}
{"compound": "CCCCCc1cc(O)c2c(c1)OC(C)(CCC=C(C)C)C=C2 (stereo not shown)", "classAssignment": "MET"}
{"compound": "CCCCCc1cc(O)c(C/C=C(\\C)CCC=C(C)C)c(O)c1", "classAssignment": "NOT MET"}
